tested_on: HLA-A*02:03
experimental_details: IEDB peptide-MHC binding, purified MHC/direct/fluorescence; filed as Kd, often an IC50 or EC50 that approximates it; bounds were set here for any values at or beyond the usual limits of such assays
test_conditions: source organism: Limestone Canyon virus
parameter: Kd

Data request: Report Kd for SPVMGVIGF please.
Data returned: ≥ 20 µM

====

tested_on: HLA-B*57:01
experimental_details: IEDB peptide-MHC binding, purified MHC/direct/fluorescence; filed as Kd, often an IC50 or EC50 that approximates it; bounds were set here for any values at or beyond the usual limits of such assays
test_conditions: source organism: Camelpox virus M-96
pKd: −log10 of the molar value.
parameter: pKd

primary_sequence: FYLFTFTIY
parameter: pKd
recorded_result: ≤ 4.70

Data request: Report pKd for SHEQGDIAL please.
Data returned: ≤ 4.70
